Reference source for all entries: patent US20190106460A1

- Measurement Target: FBW7/Skp1 (Homo sapiens, UniProt Q969H0)
- Sequence (Q969H0 whole entry, species assumed): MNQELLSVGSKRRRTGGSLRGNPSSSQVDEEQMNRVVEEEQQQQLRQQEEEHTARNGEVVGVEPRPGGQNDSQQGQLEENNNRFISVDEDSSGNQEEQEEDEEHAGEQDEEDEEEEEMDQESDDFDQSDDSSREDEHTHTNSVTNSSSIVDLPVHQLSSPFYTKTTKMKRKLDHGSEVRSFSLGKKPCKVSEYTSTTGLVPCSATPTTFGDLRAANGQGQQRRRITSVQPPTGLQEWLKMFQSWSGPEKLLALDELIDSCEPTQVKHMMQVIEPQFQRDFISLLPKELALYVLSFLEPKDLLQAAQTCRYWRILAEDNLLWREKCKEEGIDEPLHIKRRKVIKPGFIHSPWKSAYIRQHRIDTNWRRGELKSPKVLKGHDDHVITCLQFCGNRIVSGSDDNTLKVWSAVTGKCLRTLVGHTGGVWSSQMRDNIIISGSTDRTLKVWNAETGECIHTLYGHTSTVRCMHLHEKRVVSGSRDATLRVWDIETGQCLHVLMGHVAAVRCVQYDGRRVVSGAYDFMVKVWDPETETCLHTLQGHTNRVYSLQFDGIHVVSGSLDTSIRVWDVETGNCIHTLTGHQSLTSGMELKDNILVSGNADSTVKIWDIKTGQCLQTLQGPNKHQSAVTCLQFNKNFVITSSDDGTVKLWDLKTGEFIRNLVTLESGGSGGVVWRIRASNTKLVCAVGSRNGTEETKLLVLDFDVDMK
- Sequence (P63208 whole entry partner, species assumed): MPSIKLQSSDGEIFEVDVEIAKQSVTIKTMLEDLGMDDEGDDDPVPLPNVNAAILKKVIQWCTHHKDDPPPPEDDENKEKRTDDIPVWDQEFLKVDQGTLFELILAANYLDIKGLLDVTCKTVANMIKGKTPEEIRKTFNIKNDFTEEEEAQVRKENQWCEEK
- Sequence (Q13616 whole entry partner, species assumed): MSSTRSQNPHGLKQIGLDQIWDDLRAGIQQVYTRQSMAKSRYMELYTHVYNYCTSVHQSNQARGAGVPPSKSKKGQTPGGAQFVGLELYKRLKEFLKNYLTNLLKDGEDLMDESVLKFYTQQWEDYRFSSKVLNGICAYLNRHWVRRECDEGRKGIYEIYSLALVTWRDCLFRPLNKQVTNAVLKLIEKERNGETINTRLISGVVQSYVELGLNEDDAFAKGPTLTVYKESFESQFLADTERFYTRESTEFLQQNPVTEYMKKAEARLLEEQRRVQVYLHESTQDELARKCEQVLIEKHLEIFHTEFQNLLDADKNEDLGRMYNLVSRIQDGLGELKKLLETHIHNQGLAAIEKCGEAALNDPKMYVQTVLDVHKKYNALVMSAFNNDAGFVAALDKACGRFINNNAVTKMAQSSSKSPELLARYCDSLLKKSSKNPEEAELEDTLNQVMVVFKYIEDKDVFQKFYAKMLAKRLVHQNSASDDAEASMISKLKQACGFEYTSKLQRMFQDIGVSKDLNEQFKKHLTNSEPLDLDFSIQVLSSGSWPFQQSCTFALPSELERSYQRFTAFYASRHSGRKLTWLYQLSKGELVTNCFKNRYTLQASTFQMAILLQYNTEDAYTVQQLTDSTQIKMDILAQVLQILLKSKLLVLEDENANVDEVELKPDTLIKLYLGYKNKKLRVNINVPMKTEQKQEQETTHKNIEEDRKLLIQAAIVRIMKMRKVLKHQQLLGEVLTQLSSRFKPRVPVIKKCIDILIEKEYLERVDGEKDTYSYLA
- Sequence (P62877 whole entry partner, species assumed): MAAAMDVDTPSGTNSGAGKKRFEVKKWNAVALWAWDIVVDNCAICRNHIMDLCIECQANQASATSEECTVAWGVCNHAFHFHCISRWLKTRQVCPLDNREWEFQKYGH
- Procedure Summary: Selectivity assay vs other E3s: Fbw7
- Format: biochemical
- Conditions Used: 100 μM, value in brackets; read-out: % Inhibition Fbw7 @ (100 μM)
Non-standard residues stand in square brackets, D forms with d. Residues, ends and D or L forms follow the SMILES beside them. *: point of attachment. Benzenesulfonyl(4-OMe) = COc1ccc(S(=O)(=O)*)cc1; Phe(3-F) = N[C@@H](Cc1cccc(F)c1)C(=O)O; 1Nal = N[C@@H](Cc1cccc2ccccc12)C(=O)O
For each record, write down the corresponding inhibition at 100 µM.
Write your answer as a measured quantity: the number, then the unit.

Molecule	Measurement Target	Result
CC(=O)N[C@H](CC(=O)O)C(=O)N[C@@H](CCC(=O)O)C(=O)NCC(=O)N[C@@H](Cc1cccc(F)c1)C(=O)N[C@@H](Cc1cccc2ccccc12)C(=O)N[C@@H](CCC(=O)O)C(N)=O [UBP016, Ac-dEGF(3F)1NalE-NH2] (Ac-[dD]EG[Phe(3-F)][1Nal]E-NH2)	FBW7/Skp1 (Homo sapiens, UniProt Q969H0)	8%

Turning now to a further molecule:
stdin: Would you mind telling me what inhibition at 100 µM value was observed for COc1ccc(S(=O)(=O)N[C@@H](CC(=O)O)C(=O)N[C@@H](CCC(=O)O)C(=O)NCC(=O)N[C@@H](Cc2cccc(F)c2)C(=O)N[C@@H](Cc2c[nH]c3ccccc23)C(=O)N[C@@H](CCC(=O)O)C(N)=O)cc1 [4-(MeO)-PhSO2-DEGF(3F)WE-NH2] ({Benzenesulfonyl(4-OMe)}-DEG[Phe(3-F)]WE-NH2) ?
stdout: 8%
